experiment: NCI Yeast Anticancer Drug Screen. Data for the mec2-1 strain (AID 157); conditions: S. cerevisiae mec2-1 strain, at 5.0 µM (retest, dose inferred, filed as 0.5), hits give high values
This is part of a sample that, as a whole, favours compounds with a hit. Of some 79,000 tested, about 15% had one in any assay.
Known growth inhibition of a selection of compounds

compound	outputUnit	growth inhibition
[Ce+3].[Cl-].[O-]/N=C(\c1ccccc1)c1ccccn1.[O-]/N=C(\c1ccccc1)c1ccccn1.[O-]/N=C(\c1ccccc1)c1ccccn1	%	28
CCc1c(C)[nH]c(-c2csc(N)n2)c1C	%	1
Clc1nc(Cl)c(Cc2ccccc2)c(Cl)n1	%	50
C1CCC(C2=NC3CCCCC3SC2)CC1 (stereo unspecified)	%	-16
Cc1c(Cl)cccc1NC(=O)/C(Cl)=C(\Cl)C(=O)O	%	-1
O=C(Oc1ccccc1)c1ccc2ccccc2c1O	%	-5

---

assay: NCI Yeast Anticancer Drug Screen. Data for the bub3 strain (AID 167); conditions: S. cerevisiae bub3 mutant strain, at 50.0 µM (retest, dose inferred, filed as 5.0)
About 79,000 compounds went through this panel and 15% of them were active in at least one assay; those are over-represented in the sample as a whole. Active and inactive are the calls of the source. Rule as the data show it: active = growth inhibition above about 70%; inactive = the rest.
Labels: true (active), false (inactive)

compound	classLabel
Nc1c(NCc2ccccc2)ccc2ncccc12	true
CC(=O)OC1C2C3C(C=CC2[C@H]1OC(C)=O)C1C3C=CC2C1C(OC(C)=O)[C@@H]2OC(C)=O (stereo partly specified)	false
O=C1CSC(=Nc2ccc(F)cc2F)N1Cc1cccs1	false
CC(CO)CCC(=O)C(C)C1C(=O)CC2CC3CC(O)CCC3(C)CC21C (stereo unspecified)	true
NC1CCCCC1N.O=S(=O)([O-])CCCN1CCOCC1.O=S(=O)([O-])CCCN1CCOCC1.[Pt+4]	true
CCOC(=O)NN(C(=O)OCC)c1ccc(N=Nc2ccc(OC)cc2)n1C	true
CCCc1cc(=O)oc2c3c(c4c(c12)OC(C)(C)CC4)O[C@H](C)[C@H](C)C3=O	true
O=C1CN(CCN2CCOCC2)CC(=O)N2Cc3ccccc3CN12	false
O=C1c2ccccc2C(=O)c2c(NCCNCCO)ccc(O)c21	true
COc1ccc(C=Nc2ccccc2O)cc1	true
Cc1cccc2c(=O)c3ccccc3oc12	false

---

experiment: NCI Yeast Anticancer Drug Screen. Data for the cln2 rad14 strain (AID 165);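 also: 0% = growth equal to vehicle treated cultures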; details: S. cerevisiae cln2 rad14 strain, at 50.0 µM (retest, dose inferred, filed as 5.0), hits give high values
This is part of a sample that, as a whole, favours compounds with a hit. Of some 79,000 tested, about 15% had one in any assay.

compound	outputUnit	growth inhibition
O=C(N/C(=C\c1ccccc1)C(=O)N1CCN(c2ccccc2)CC1)c1ccccc1	%	0
COc1ccc(Cc2nncc3ccccc23)cc1OC	%	83
CCc1c(C)[nH]c(-c2csc(N)n2)c1C	%	93
COC(=O)C1(Cc2ccccc2)Cc2c(C)ccc(C)c2C1=O (stereo unspecified)	%	2
S=C(Nc1ccc2cn[nH]c2c1)Nc1ccc2cn[nH]c2c1	%	2
CCc1n[nH]c(CC)c1CCCCCCOc1ccc(OC)cc1Cl	%	76
O=C(CC(=O)c1cccnc1)c1cccnc1	%	98
CCC(C)c1ccc(O)c(C(C)c2ccccc2)c1 (stereo unspecified)	%	101
CC1(C)NC(=O)C(C)(C)NC1=O	%	3
CCOC(=O)c1[nH]n(-c2ccccc2)c(=O)c1/C=N/C(=S)N=Nc1c(O)[nH]c2ccccc12	%	-20
CCCCCCCCCCN(CCCCCCCCCC)C1CC(OC2CC(O)(C(O)CO)Cc3c(O)c4c(c(O)c32)C(=O)c2c(OC)cccc2C4=O)OC(C)C1O (stereo unspecified)	%	88

---

test: NCI Yeast Anticancer Drug Screen. Data for the sgs1 mgt1 strain (AID 161);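 also: 0% = growth of cultures given vehicle only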; settings: S. cerevisiae sgs1 mgt1 strain, at 50.0 µM (retest, dose inferred, filed as 5.0)
Compounds without any hit were thinned out: in the full panel of roughly 79,000, 15% have a hit. Calls of active or inactive are those of the source. Cut-off read from the data, not from the text of the source: active = growth inhibition above about 70%; inactive = the rest.
Labels: active, inactive

compound	classLabel
O=C(O)CN1CCNCCN(CC(=O)O)CCNCC1	active
Nc1c(-c2ccc(C3=NCCN3)cc2)[nH]c2cc(C3=NCCN3)ccc12	active
Nc1ccc(C(=O)N/N=C\c2cccc3ccccc23)cc1	inactive
C1C[OH+]CC[OH+]CCNCC[OH+]CC[OH+]CCN1.[Cl-].[Pt+4]	inactive
CN(C)c1ccc(/C=C/c2ccnc3ccccc23)c(O)c1	inactive
CCCC#CCCOC(=O)c1cc([N+](=O)[O-])cc([N+](=O)[O-])c1	active
OC(Cn1cncn1)(Cn1cncn1)c1ccc(Cl)cc1Cl	inactive
NC(=O)NOC(=O)c1ccccc1	active
CC(=NCC(=O)O)c1ccccc1	inactive
O=C1c2ccccc2C(O)(c2ccccc2)N1c1ccc([N+](=O)[O-])cc1 (stereo not drawn)	active
O=C(NO)Nc1nc(Cl)c(Cl)nc1Cl	active
CCN(CC)CCCNc1ccc([N+](=O)[O-])c2nc3ccc(OC)cc3c(N)c12	inactive
O=S(=O)(Nc1ccccc1)c1ccccc1CC(O)(c1ccccc1)c1ccccc1	active
C[n+]1c(-c2ccc(/C=N/Nc3n[nH]c(=S)n3/N=C/c3ccc(-c4cn5ccsc5[n+]4C)cc3)cc2)cn2ccsc21	active
O=C(O)CCCc1ccc2c(c1)CC1(C2)Cc2ccc(CCCC(=O)O)cc2C1	inactive
Clc1ccc(Cc2nc3ccccc3s2)c(Cl)c1	active
Nc1nc(-c2ccccn2)cc2cc(Cl)ccc12	active
Cc1ccc(S(=O)(=O)OCCCCOS(=O)(=O)c2ccc(C)cc2)cc1	inactive
Cc1c[nH]c(C(=O)O)c1-c1ccc2c(-c3ccccc3)nc3ccccc3n12	active
O=C1CSC(c2ccc(Cl)cc2)N1c1ccc(-c2ccc(-n3c(-c4ccccc4)nc4ccccc4c3=O)cc2)cc1 (stereo not drawn)	inactive
CC1(CCC(=O)O)c2ccc3ccccc3c2Oc2c1ccc1ccccc21	active
CC(=O)Nc1ccccc1C(O)(c1ccccc1)c1ccccc1	inactive
NN(c1ccccc1)c1cccc2ccccc12	active

---

test: NCI Yeast Anticancer Drug Screen. Data for the mec2-1 strain (AID 157); conditions: S. cerevisiae mec2-1 strain, at 50.0 µM
Compounds without any hit were thinned out: in the full panel of roughly 79,000, 15% have a hit. Calls of active or inactive are those of the source. Rule as the data show it: active = growth inhibition above about 70%; inactive = the rest.
Labels: active, inactive

compound	classLabel
Cc1ccccc1N1C(=O)c2ccccc2C1=O	active
COC(=O)C(CCC(=O)Cc1ccccc1)N1C(=O)c2ccccc2C1=O (stereo not given)	inactive
CC(C)OC(=S)SSSC(=S)OC(C)C	active
COc1cc(NCCCCCNC2CCCCC2)c2ncccc2c1	inactive
Brc1ccc(N2COc3ccc4ccccc4c3C2)cc1	inactive
C=C1CC2(CCOc3ccccc32)OC1=O (stereo not given)	active
O=C1CSC(=S)N1Cc1ccncc1	inactive
O=C(/C=C/c1cc(O)c(O)cc1O)OCCc1ccccc1	active
FC(F)(F)c1ccc(NC(=S)SCc2ccc(Cl)cc2)cc1	active
CCCCCCCCCCCCCCCCS(=O)(=O)Cl	inactive
Oc1cc(CNCc2ccccc2)c(O)c(CNCc2ccccc2)c1	inactive
CCOC(CCl)Oc1c(C(C)C)cc(C(C)C)c(Cl)c1C (stereo not given)	active
Cc1ccc(NC(=O)CC2SC(N)=NC2=O)cc1C (stereo not given)	active
ClC(Cl)(Cl)C1=CC2c3ccccc3C1c1ccccc12	inactive
OCC1CC[N-]CC1.OCC1CC[N-]CC1.[Cl][Pt+2]([Cl])([Cl])[Cl]	active
Cc1c(N)ccc(O)c1C	active
COc1ccc2nc3cc(Cl)ccc3c(NCCC[N+](C)(C)CCCCCCCCCC[N+](C)(C)CCCNc3c4ccc(Cl)cc4nc4ccc(OC)cc34)c2c1	active
Cc1cc(Cl)c2cc(Cc3ccc(Br)cc3)ccc2n1	inactive
Cc1c2[nH]c3ccc(Br)cc3c2c(C)c2[nH]ccc(=O)c12	active
O=c1ccc2nc3ccccc3sc-2c1	inactive
O/N=C1/CCCC/C1=C\c1ccc(Cl)c(Cl)c1	active
Fc1ccc2nncc(SCc3ccccc3)c2c1	active
Cc1ccc(C(=O)OCCN2CCOCC2)c([N+](=O)[O-])c1OCc1ccccc1	inactive
O=C1C(C(O)(C(F)(F)Cl)C(F)(F)Cl)CCCC1C(O)(C(F)(F)Cl)C(F)(F)Cl (stereo not given)	active
Nc1c(/C=C/c2cc3ccc(C4=NCCN4)cc3[nH]2)[nH]c2cc(C3=NCCN3)ccc12	active

---

assay: NCI Yeast Anticancer Drug Screen. Data for the mec2-1 strain (AID 157); conditions: S. cerevisiae mec2-1 strain, at 50.0 µM (retest, dose inferred, filed as 5.0)
Compounds without any hit were thinned out: in the full panel of roughly 79,000, 15% have a hit. The source made the active and inactive calls. Cut-off read from the data, not from the text of the source: active = growth inhibition above about 70%; inactive = the rest.
Labels: active, inactive

compound	classLabel
N#Cc1c(-c2ccc([N+](=O)[O-])cc2)c(C#N)c(=O)n(NS(=O)(=O)c2ccccc2)c1S	active
Cc1cc(N2C(=O)CCSC2=S)ccc1Cl	inactive
CC12CCC(O)CC1=CCC1C2CCC2(C)/C(=C\C#N)CCC12 (stereo not given)	active
CN(C)C=NCCNc1ccc([N+](=O)[O-])cn1	inactive
CCCCN(CC(O)c1ccc(Cl)cc1)c1ccccc1 (stereo not given)	active
Cc1cnc(C#N)c(C#N)n1	inactive
c1ccc(C2=NCCC(c3ccccc3)S2)cc1 (stereo not given)	inactive
ClC(Cl)(Cl)/C=C/c1cnc2ccccc2n1	active
COc1ccc2cc(Br)ccc2c1	inactive
CC/C(C)=N/OC(=O)Nc1ccccc1	inactive
COC1CC(OC(=O)c2ccccc2)C2OC(c3ccccc3)OCC2O1 (stereo not given)	inactive
CCN(CC)C(=O)CCCCC(=O)OC(C)C	inactive
COc1cccc2nc3c(C(=O)NCCN(C)C)cccc3cc12	inactive
C[C@]12CC[C@H](O)CC1=CC[C@@H]1C2CC[C@]2(C)C(=O)N(N)C(=O)CC12 (stereo not given in full)	active
Cc1cccc2c(CC(=O)O)cccc12	active
C[N+]1(C)CCCC(OCCCCCCCCCCCCCCOC2CCC[N+](C)(C)C2)C1 (stereo not given)	active
Cc1nc2c(nc1C)C(=O)C1=C(C2=O)C2C=CC1CC2	active
C=C(C)C(CC=C(C)C)Cc1c(O)cc(OC)c2c1OC(c1ccc(O)cc1O)C(O)C2=O (stereo not given)	inactive
Nc1nnc(Cc2ccc(Br)cc2)o1	inactive
CCC(/C=C/c1ccccc1)=N\Nc1ccccc1	active
CN(NC(=O)/C(=C/c1ccc2c(c1)OCO2)NC(=O)c1ccccc1)c1ccnc2cc(Cl)ccc12	inactive
C=CCc1cc([N+](=O)[O-])ccc1O	active
O=C1CSC(=S)N1Cc1ccncc1	inactive
CC(=O)OC1CCC(C(C)(C)C)C(C)C1 (stereo not given)	active
Cc1c2ccccc2c(CCl)c2ccc3ccccc3c12	active
